# test_system: CD28 (human) (UniProt P10747)
# assay_comment: flow cytometry, Jurkat cells (CD28); MFI over CD80 WT IgV-Fc
quantity_measured: Fold change to WT CD80 (fold)

Use the examples below as a reference point.
{"binder": "variant CD80 IgV-Fc (inert) H18T/A26N/E35D/M47L/V68M/A71G (Fc fusion) VIHVTKEVKEVATLSCGTNVSVEELNQTRIYWQKDKKMVLTMMSGDLNIWPEYKNRTIFDITNNLSIMILGLRPSDEGTYECVVLKYEKDAFKREHLAEVTLSVKAD", "scale_unit": "fold", "Fold change to WT CD80": 13.4}
{"binder": "variant CD80 IgV-Fc (inert) H18L/A26N/D46E/V68M/A71G/D90G (Fc fusion) VIHVTKEVKEVATLSCGLNVSVEELNQTRIYWQKEKKMVLTMMSGEMNIWPEYKNRTIFDITNNLSIMILGLRPSDEGTYECVVLKYEKGAFKREHLAEVTLSVKAD", "scale_unit": "fold", "Fold change to WT CD80": 71.1}
{"binder": "variant CD80 IgV-Fc (inert) H18C/A26P/E35D/M47L/V68M/A71G (Fc fusion) VIHVTKEVKEVATLSCGCNVSVEELPQTRIYWQKDKKMVLTMMSGDLNIWPEYKNRTIFDITNNLSIMILGLRPSDEGTYECVVLKYEKDAFKREHLAEVTLSVKAD", "scale_unit": "fold", "Fold change to WT CD80": 18.7}
{"binder": "variant CD80 IgV-Fc (inert) H18Y/E35D/M47V/V68M/A71G (Fc fusion) VIHVTKEVKEVATLSCGYNVSVEELAQTRIYWQKDKKMVLTMMSGDVNIWPEYKNRTIFDITNNLSIMILGLRPSDEGTYECVVLKYEKDAFKREHLAEVTLSVKAD", "scale_unit": "fold", "Fold change to WT CD80": 31.6}
{"binder": "variant CD80 IgV-Fc (inert) H18V/A26D/E35D/M47V/V68M/A71G/D90G (Fc fusion) VIHVTKEVKEVATLSCGVNVSVEELDQTRIYWQKDKKMVLTMMSGDVNIWPEYKNRTIFDITNNLSIMILGLRPSDEGTYECVVLKYEKGAFKREHLAEVTLSVKAD", "scale_unit": "fold", "Fold change to WT CD80": 61.3}

(P) variant CD80 IgV-Fc (inert) H18V/A26K/E35D/M47L/V68M/A71G (Fc fusion) VIHVTKEVKEVATLSCGVNVSVEELKQTRIYWQKDKKMVLTMMSGDLNIWPEYKNRTIFDITNNLSIMILGLRPSDEGTYECVVLKYEKDAFKREHLAEVTLSVKAD
(Q) variant CD80 IgV-Fc (inert) H18F/A26D/E35D/D46E/M47T/V68M/A71G/D90G (Fc fusion) VIHVTKEVKEVATLSCGFNVSVEELDQTRIYWQKDKKMVLTMMSGETNIWPEYKNRTIFDITNNLSIMILGLRPSDEGTYECVVLKYEKGAFKREHLAEVTLSVKAD
INPUT: Lowest Fold change to WT CD80? choose P or Q Lab log: write the label of the selected item as the result.
OUTPUT: P

// data source = patent US20220177587A1
